# ASSAY TARGET: UniProt:P08173
# PROCEDURE TEXT: mAChR M4 cell-based functional assay (calcium flux, antagonism of EC80 acetylcholine response)
# ASSAY CONDITIONS: M4/Gqi5/CHO-K1 cells; concentration-dependent decrease of the response elicited by an EC80 concentration of acetylcholine
Catalogue of IC50 readings, one per entry.
QUANTITY: IC50

{"columns": ["SMILES REPR", "RESULT"],
 "data": [
  ["[2H]C([2H])([C@H]1CCCOC1)N1C[C@H]2C[C@H](Nc3ccc(-c4cccc(C(=O)NC)c4)nn3)C[C@H]2C1", "570 nM"],
  ["O=C(NC1CC(F)(F)C1)c1cc(F)c(F)c(-c2ccc(N[C@H]3C[C@@H]4CN(CC5CCOCC5)C[C@@H]4C3)nn2)c1", "82 nM"],
  ["O=C(NC12CC(C1)C2)c1cc(F)c(F)c(-c2ccc(N[C@H]3C[C@@H]4CN(CC5CCOCC5)C[C@@H]4C3)nn2)c1", "27 nM"]
]}

###

# ASSAY TARGET: Human M4 (Homo sapiens, UniProt P08173)
# Sequence (P08173 whole entry): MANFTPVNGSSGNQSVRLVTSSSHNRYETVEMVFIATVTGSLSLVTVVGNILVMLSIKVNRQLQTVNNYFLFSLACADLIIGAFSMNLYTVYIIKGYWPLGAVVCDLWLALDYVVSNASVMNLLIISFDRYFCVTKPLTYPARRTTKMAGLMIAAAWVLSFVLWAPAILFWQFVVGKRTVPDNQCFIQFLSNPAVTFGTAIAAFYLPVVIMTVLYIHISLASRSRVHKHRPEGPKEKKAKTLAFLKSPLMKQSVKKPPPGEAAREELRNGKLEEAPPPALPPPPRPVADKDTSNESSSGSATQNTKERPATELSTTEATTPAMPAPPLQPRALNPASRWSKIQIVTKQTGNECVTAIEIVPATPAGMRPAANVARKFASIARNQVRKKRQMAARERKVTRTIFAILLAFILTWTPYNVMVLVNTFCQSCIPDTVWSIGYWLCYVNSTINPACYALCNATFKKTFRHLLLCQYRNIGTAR
# PROCEDURE TEXT: mAChR M4 cell-based functional assay (calcium flux, antagonism of EC80 acetylcholine response)
# ASSAY CONDITIONS: M4/Gqi5/CHO-K1 cells; concentration-dependent decrease of the response elicited by an EC80 concentration of acetylcholine
Catalogue of IC50 readings, one per entry.

{"columns": ["MOLECULE", "IC50 [nM]"],
 "data": [
  ["O=C(c1ccc(-c2ccc(N[C@H]3C[C@@H]4CN(CC5CCOCC5)C[C@@H]4C3)nn2)cc1)N1CCCCC1", 21],
  ["CCNC(=O)c1cccc(-c2ccc(N[C@H]3C[C@@H]4CN(CC5CCOCC5)C[C@@H]4C3)nn2)c1", 13],
  ["[2H]C([2H])(C1CCOC(C)(C)C1)N1C[C@H]2C[C@H](Nc3ccc(-c4cc(F)cc(C(=O)NC)c4)nn3)C[C@H]2C1 (stereo partly drawn)", 2.7]
]}

###

# ASSAY TARGET: Human M4 (Homo sapiens, UniProt P08173)
# Construct: expressed in transfected cells; host or cells: CHO-K1 (ATCC), co-transfected with chimeric G protein Gqi5
# PROCEDURE TEXT: mAChR M4 cell-based functional assay (calcium flux, antagonism of EC80 acetylcholine response)
# ASSAY CONDITIONS: M4/Gqi5/CHO-K1 cells; % ACh maximum at 30 μM; read-out: Human M4 Emin (% ACh maximum at 30 μM)

{"columns": ["MOLECULE", "ASSAY TARGET", "remaining activity at 30 µM [%]"],
 "data": [
  ["[2H]C([2H])(C1CCOCC1)N1C[C@H]2C[C@H](Nc3ccc(-c4cccc(NC(=O)CC)c4)nn3)C[C@H]2C1 [Compound A57]", "Human M4 (Homo sapiens, UniProt P08173)", 3],
  ["CC(=O)Nc1cccc(-c2ccc(N[C@H]3C[C@@H]4CN(CC5CCOCC5)C[C@@H]4C3)nn2)c1 [Compound A29]", "Human M4 (Homo sapiens, UniProt P08173)", 3],
  ["[2H]C([2H])(C1CCOCC1)N1C[C@H]2C[C@H](Nc3ccc(-c4ccc(C(=O)NC5CC5)cc4)nn3)C[C@H]2C1 [Compound A34]", "Human M4 (Homo sapiens, UniProt P08173)", 4],
  ["O=C(NC1CC(F)(F)C1)c1cc(F)c(F)c(-c2ccc(N[C@H]3C[C@@H]4CN(CC5CCOCC5)C[C@@H]4C3)nn2)c1 [Compound A19]", "Human M4 (Homo sapiens, UniProt P08173)", 4],
  ["O=C(c1cc(F)c(F)c(-c2ccc(N[C@H]3C[C@@H]4CN(CC5CCOCC5)C[C@@H]4C3)nn2)c1)N1CCOCC1 [Compound A10]", "Human M4 (Homo sapiens, UniProt P08173)", 3],
  ["CCN(CC)C(=O)c1ccc(-c2ccc(N[C@H]3C[C@@H]4CN(CC5CCOCC5)C[C@@H]4C3)nn2)cc1 [Compound A24]", "Human M4 (Homo sapiens, UniProt P08173)", 4]
]}
